target: Coagulation factor X (Homo sapiens, UniProt P00742); experiment: Inhibition of human fXa assessed as inhibition constant using Cbz-D-Arg-Gly-L-Arg-pNA as substrate preincubated for 30 mins followed by substrate addition and measured after 60 mins by […] method
Sequence (P00742 41-179 limits assumed): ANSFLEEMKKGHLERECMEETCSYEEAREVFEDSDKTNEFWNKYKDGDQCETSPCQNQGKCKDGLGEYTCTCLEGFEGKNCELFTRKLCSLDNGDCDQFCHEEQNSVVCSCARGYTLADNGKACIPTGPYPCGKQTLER
Sequence (P00742 235-488 limits assumed): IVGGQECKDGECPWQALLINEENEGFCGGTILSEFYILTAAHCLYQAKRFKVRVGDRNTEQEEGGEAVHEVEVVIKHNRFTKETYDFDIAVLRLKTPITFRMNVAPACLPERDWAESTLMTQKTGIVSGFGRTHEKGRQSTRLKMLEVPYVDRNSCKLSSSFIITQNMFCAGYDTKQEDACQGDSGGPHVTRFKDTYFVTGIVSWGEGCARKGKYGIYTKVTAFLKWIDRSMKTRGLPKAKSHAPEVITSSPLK
pKi: −log10 of the molar value.
parameter: pKi

{"recordSmiles": "CC(C)N1CCC(NC(=O)c2cc3ccccc3n2Cc2cc(-c3cccs3)on2)CC1", "parameter": "pKi", "reportedValue": 6.79}
{"recordSmiles": "CC(C)N1CCC(NC(=O)c2nn(CC(=O)Nc3ccc(Cl)cc3)c3ccccc23)CC1", "parameter": "pKi", "reportedValue": 5.76}
{"recordSmiles": "CC(C)N1CCC(NC(=O)c2ccn(Cc3cc(-c4ccc(Cl)s4)on3)c2)CC1", "parameter": "pKi", "reportedValue": 5.91}
{"recordSmiles": "CC(C)N1CCC(NC(=O)c2nc3ccccc3n2Cc2cc(-c3ccc(Cl)s3)on2)CC1", "parameter": "pKi", "reportedValue": 9.30}
{"recordSmiles": "CC(C)N1CCC(NC(=O)c2cn(Cc3cc(-c4ccc(Cl)s4)on3)cn2)CC1", "parameter": "pKi", "reportedValue": 4.83}
{"recordSmiles": "CC(C)N1CCC(NC(=O)c2c3ccccc3nn2Cc2cc(-c3ccc(Cl)s3)on2)CC1", "parameter": "pKi", "reportedValue": 8.10}
{"recordSmiles": "CC(C)N1CCC(NC(=O)c2cccn2Cc2cc(-c3ccc(Cl)s3)on2)CC1", "parameter": "pKi", "reportedValue": 7.24}
{"recordSmiles": "CC(C)N1CCC(NC(=O)c2cn(Cc3cc(-c4ccc(Cl)s4)on3)c3ccccc23)CC1", "parameter": "pKi", "reportedValue": 6.62}
{"recordSmiles": "Cc1ccc(NC(=O)Cn2c(C(=O)NC3CCN(C(C)C)CC3)cc3ccccc32)cc1", "parameter": "pKi", "reportedValue": 7.25}
